Test system: A549
EXPERIMENT_NOTES: Cytotoxicity against human A549 cells after 72 hrs by CCK-8 assay
Type: functional, cell-based
APPLIED_CONDITIONS: A549, 72 h
MEASURE_NAME: pIC50
# pIC50: negative log10 of molar concentration; output just the value

Q: State pIC50 on A549. Entry: CCOC(=O)CC1CNC(=O)c2ccc(Br)n21 (stereo not given)
A: 4.49

Q: Report pIC50 under test system A549 for COC(=O)CC1CNC(=O)c2ccc(Br)n21 (stereo not given) .
A: 4.19

Q: Please look at COC(=O)CC1CNC(=O)c2cc(Br)c(Br)n21 (racemic) and tell me its recorded pIC50 on A549.
A: 4.09

Q: For A549, give the measured pIC50 of the entry CCOC(=O)CC1CNC(=O)c2cc(Br)c(Br)n21 (racemic)
A: 4.39

* * *

Tested on: A549
EXPERIMENT_NOTES: Cytotoxicity against human A549 cells after 72 hrs by CCK-8 assay
Format: functional, cell-based
APPLIED_CONDITIONS: A549, 72 h
Hi there, I'd appreciate the recorded IC50 for every entry that follows.

Q: Fill in IC50 for record O=C(O)CC1CNC(=O)c2cc(Br)c(Br)n21 (racemic)
A: > 200 µM

Q: Return reported IC50. Input compound: COC(=O)CC1CNC(=O)c2cccn21 (stereo unspecified)
A: > 200 µM

Q: Supply reported IC50 belonging to this compound: O=C(O)CC1CNC(=O)c2ccc(Br)n21 (stereo unspecified)
A: > 200 µM

Q: Fill in IC50 for record `COC(=O)Cc1c[nH]c(=O)c2ccc(Br)n12`
A: 165 µM

Q: Note IC50 for the compound shown: `COC(=O)Cc1c[nH]c(=O)c2cc(Br)c(Br)n12`
A: > 200 µM

Q: // fetch IC50 given entry CO[C@@]12[C@H](COC(N)=O)C3=C(C(=O)C(C)=C(N)C3=O)N1C[C@@H]1N[C@@H]12 [MITOMYCIN]
A: 1.7 µM

All figures here come from ChEMBL document CHEMBL3745694.
